Each entry below carries its reported protein stability index.
- runDescription: protein stability index of a GFP-peptide fusion (GPS, HEK-293T) (PSI 1-6); higher = more stable;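 note: 24-mer peptide tiles fused after GFP, lentivirally expressed, FACS-sorted into six equal bins by GFP/DsRed ratio, decoded by Illumina sequencing, PSI is the read-weighted mean bin number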
- conditions: treatment: MLN4924 1 uM, 8 h; c terminus: a fixed tail appended
readoutKind: protein stability index

[[record]]
itemsequence = "QYLALPERAELAASLGLTQTQVKI [DLX1]"
measurednumber = 3.03

[[record]]
itemsequence = "LFLKEGACDELFSYLIEKVKRKKN [PRAME]"
measurednumber = 2.21

[[record]]
itemsequence = "GVCGDRATGFHFNAMTCEGCKGFF [VDR]"
measurednumber = 2.38

[[record]]
itemsequence = "AEERRRQNLQEEKERKLECLPPEP [FAF2]"
measurednumber = 5.51

[[record]]
itemsequence = "HSNGPTDLSMKGGASTTSTTPSAL [NOL4L]"
measurednumber = 4.94

[[record]]
itemsequence = "FDLNNLDPELKNLFDMCGISEAQL [WASL]"
measurednumber = 2.83

[[record]]
itemsequence = "LAGGYTSSLACHRALQDAFSGLFW [MNAT1]"
measurednumber = 2.45

[[record]]
itemsequence = "SARFWIPGEPNNAGNNEHCGNIKA [CD207]"
measurednumber = 4.18

[[record]]
itemsequence = "SMLPPVNFSIVPYEKKFDTFIPLE [SPATS1]"
measurednumber = 2.49

[[record]]
itemsequence = "IRTYLGRSPLVSGDESSLLLNAAS [RHOBTB3]"
measurednumber = 2.46

[[record]]
itemsequence = "PYARIQQSRRQCHAEEDQSQVPEA [SMIM2]"
measurednumber = 5.19

[[record]]
itemsequence = "PLDAGEYCVPRGNRRRFRVRQPIL [BEX1]"
measurednumber = 3.63

[[record]]
itemsequence = "KQQLVDAFLKLAKQRSVCTWGKNK [FAN1]"
measurednumber = 2.25

[[record]]
itemsequence = "VKLPLPAERVTLADFKGVLQRPSY [DVL3]"
measurednumber = 2.73

[[record]]
itemsequence = "AEIATASASASTTTTVTAVTAEVD [SNAP91]"
measurednumber = 5.47

[[record]]
itemsequence = "YQQLKLEGPGEQETKLDLISKGEE [SLC29A1]"
measurednumber = 5.28

[[record]]
itemsequence = "TGGVTALCWDPVQRVLFSGSSDHS [WDFY2]"
measurednumber = 2.78

[[record]]
itemsequence = "TYLSKVDPDGKKIKQIQQLFEEIL [FBXO33]"
measurednumber = 1.84

[[record]]
itemsequence = "MAKTLVFSKVKTSLGLDHCHSFIS [ACSBG2]"
measurednumber = 1.82

[[record]]
itemsequence = "AGQVTALPVNSPMNKGDTEVMKCI [CHGA]"
measurednumber = 4.57

[[record]]
itemsequence = "GPGEPDVRDGFSATFEKILESELL [PSD2]"
measurednumber = 4.03

[[record]]
itemsequence = "DANTWRLYGGMNYRRLGGGVGVIK [KLHL20]"
measurednumber = 2.54

[[record]]
itemsequence = "VSCGFGGGAGSGFGGGYGGGLGGG [KRT13]"
measurednumber = 2.2

[[record]]
itemsequence = "DLKNVKSKIGSTDNIKYQPKGGQV [MAP2]"
measurednumber = 3.54

[[record]]
itemsequence = "VRENVPRVLNSAKEKSSTVPIPTV [SOAT1]"
measurednumber = 4.16

[[record]]
itemsequence = "LCLNTEDSFVCQCSEGFLINEDLK [MATN2]"
measurednumber = 3.38

[[record]]
itemsequence = "RPQSAQSSFPPSPGPSPDVQLATL [AUP1]"
measurednumber = 4.34

